Every entry's value here was drawn from patent US7045528B2.

- measured on: PDGFRβ (Homo sapiens)
- Construct: expressed in transfected cells; host or cells: porcine aorta endothelial (PAE)-PDGFRβ cells
- Sequence (P09619 33-1106): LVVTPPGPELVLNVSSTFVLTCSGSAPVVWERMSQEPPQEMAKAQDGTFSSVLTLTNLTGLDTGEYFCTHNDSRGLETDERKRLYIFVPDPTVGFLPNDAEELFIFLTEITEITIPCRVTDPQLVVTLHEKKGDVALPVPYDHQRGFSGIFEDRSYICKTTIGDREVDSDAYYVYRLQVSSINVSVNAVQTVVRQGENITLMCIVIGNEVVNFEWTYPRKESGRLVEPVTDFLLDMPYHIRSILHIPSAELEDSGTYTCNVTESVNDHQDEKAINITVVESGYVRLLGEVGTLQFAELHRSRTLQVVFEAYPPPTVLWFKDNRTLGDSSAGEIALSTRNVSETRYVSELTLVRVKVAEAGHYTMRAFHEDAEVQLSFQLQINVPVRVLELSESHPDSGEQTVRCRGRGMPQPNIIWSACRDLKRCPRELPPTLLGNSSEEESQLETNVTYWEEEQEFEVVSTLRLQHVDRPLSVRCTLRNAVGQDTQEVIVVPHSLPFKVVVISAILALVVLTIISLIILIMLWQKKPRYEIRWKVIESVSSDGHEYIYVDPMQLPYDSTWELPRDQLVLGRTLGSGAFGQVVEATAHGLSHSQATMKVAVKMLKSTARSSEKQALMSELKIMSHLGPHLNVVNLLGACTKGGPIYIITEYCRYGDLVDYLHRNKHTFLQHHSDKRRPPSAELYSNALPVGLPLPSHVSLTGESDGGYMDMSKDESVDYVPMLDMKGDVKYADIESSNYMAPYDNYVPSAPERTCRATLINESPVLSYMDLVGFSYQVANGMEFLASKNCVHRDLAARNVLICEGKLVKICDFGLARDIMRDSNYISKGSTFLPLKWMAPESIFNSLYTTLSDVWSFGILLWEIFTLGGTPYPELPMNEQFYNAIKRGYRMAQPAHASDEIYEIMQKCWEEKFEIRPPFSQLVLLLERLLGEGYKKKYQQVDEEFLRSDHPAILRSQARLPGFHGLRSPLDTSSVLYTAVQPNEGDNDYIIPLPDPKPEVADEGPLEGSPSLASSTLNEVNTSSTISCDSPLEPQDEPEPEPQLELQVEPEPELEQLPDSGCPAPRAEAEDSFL
- assay explanation: PAE-PDGFRβ phosphorylation in PAE-PDGFRB cells assay
- Assay type: cell-based
property label: pIC50
Notebook: values listed as pIC50 are -log10 of the concentration (mol/L).

Problem: Find the recorded pIC50 belonging to CNC(=O)c1c(C)n(C)c2cc(Oc3ccnc4cc(C(=O)N5CC[C@@H](NC)C5)sc34)ccc12 [Example 35] and report it.
Solution: 7.15

---

Below, each of the molecules is paired with its reported inhibition at 0.1 µM value.
- measured on: unphosphorylated VEGF-R2Δ50 (FLVK) (Homo sapiens, UniProt P35968, DEL940-989/E990V)
- Construct: VEGF-R2Δ50 contains residues 806–939 and 990–1171; made in house; host or cells: baculovirus/insect cell system
- Sequence (P35968 with tags, fused parts or gaps DEL940-989/E990V limits assumed): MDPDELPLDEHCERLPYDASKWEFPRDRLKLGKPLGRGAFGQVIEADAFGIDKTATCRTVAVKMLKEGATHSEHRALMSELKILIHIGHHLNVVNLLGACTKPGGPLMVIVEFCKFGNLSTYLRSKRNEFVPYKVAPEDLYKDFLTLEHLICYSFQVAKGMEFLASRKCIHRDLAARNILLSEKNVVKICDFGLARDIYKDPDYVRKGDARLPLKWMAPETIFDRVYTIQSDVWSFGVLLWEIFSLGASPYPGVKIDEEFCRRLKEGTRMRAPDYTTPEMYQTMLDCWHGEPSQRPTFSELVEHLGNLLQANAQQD
- assay explanation: VEGF-R2 coupled spectrophotometric assay, unphosphorylated VEGF-R2Δ50 (FLVK)
- Assay type: biochemical
- stated conditions: percent inhibition at 100 nM; library amides from Example 101 (R101), crude mixtures in DMSO; read-out: FLVK (% @ 100 nM)
Reply numerically in %, unit not repeated.

Problem: Find the recorded inhibition at 0.1 µM belonging to COC(=O)C1CN1C(=O)c1c(C)oc2cc(Oc3ccnc4ccsc34)ccc12 (stereo not drawn) and report it.
Solution: 51

Problem: Find the recorded inhibition at 0.1 µM belonging to Cc1oc2cc(Oc3ccnc4ccsc34)ccc2c1C(=O)NCCOC(C)C [drawing 361] and report it.
Solution: 94

Problem: Find the recorded inhibition at 0.1 µM belonging to Cc1oc2cc(Oc3ccnc4ccsc34)ccc2c1C(=O)NCC(c1ccc[nH]1)C(F)(F)F (stereo not drawn) and report it.
Solution: 85

Problem: Find the recorded inhibition at 0.1 µM belonging to "Cc1csc(NC(=O)c2c(C)oc3cc(Oc4ccnc5ccsc45)ccc23)n1" and report it.
Solution: 62

Problem: Find the recorded inhibition at 0.1 µM belonging to "Cc1oc2cc(Oc3ccnc4ccsc34)ccc2c1C(=O)Nc1ccc2cn[nH]c2c1" and report it.
Solution: 87

Problem: Find the recorded inhibition at 0.1 µM belonging to "Cc1oc2cc(Oc3ccnc4ccsc34)ccc2c1C(=O)Nc1nnc(C2CC2)s1" and report it.
Solution: 100

Problem: Find the recorded inhibition at 0.1 µM belonging to "Cc1oc2cc(Oc3ccnc4ccsc34)ccc2c1C(=O)Nc1cc(-c2ccco2)n[nH]1" and report it.
Solution: 101

Problem: Find the recorded inhibition at 0.1 µM belonging to "Cc1oc2cc(Oc3ccnc4ccsc34)ccc2c1C(=O)Nc1nncs1" and report it.
Solution: 75

Problem: Find the recorded inhibition at 0.1 µM belonging to "Cc1oc2cc(Oc3ccnc4ccsc34)ccc2c1C(=O)Nc1nccs1" and report it.
Solution: 90

Problem: Find the recorded inhibition at 0.1 µM belonging to Cc1cc(NC(=O)c2c(C)oc3cc(Oc4ccnc5ccsc45)ccc23)n[nH]1 [drawing 331] and report it.
Solution: 100

Problem: Find the recorded inhibition at 0.1 µM belonging to "Cc1oc2cc(Oc3ccnc4ccsc34)ccc2c1C(=O)NCCc1cccc(C(F)(F)F)c1" and report it.
Solution: 97

Problem: Find the recorded inhibition at 0.1 µM belonging to "COc1ccc(NC(=O)c2c(C)oc3cc(Oc4ccnc5ccsc45)ccc23)c(OC)n1" and report it.
Solution: 92

Problem: Find the recorded inhibition at 0.1 µM belonging to "Cc1oc2cc(Oc3ccnc4ccsc34)ccc2c1C(=O)Nc1cc[nH]n1" and report it.
Solution: 91

Problem: Find the recorded inhibition at 0.1 µM belonging to Cc1oc2cc(Oc3ccnc4ccsc34)ccc2c1C(=O)Nc1ccc(N2CCOCC2)nc1 [drawing 369] and report it.
Solution: 101

Problem: Find the recorded inhibition at 0.1 µM belonging to "Cc1oc2cc(Oc3ccnc4ccsc34)ccc2c1C(=O)Nc1ccc2[nH]ncc2c1" and report it.
Solution: 96
